target: Mu-type opioid receptor (Homo sapiens); assay: Displacement of [3H]DAMGO from human recombinant mu opioid receptor expressed in HEK293 cells by scintillation counting
Where a name gives a salt, the structure may show the parent alone.
measured-parameter: pKi
Friendly reminder that pKi comes from taking -log10 of the concentration in mol/L.

GET /values?readout=pKi&item= CC(C)N[C@@H]1CCn2c(=O)[nH]c3cccc(c32)[C@H]1O (racemic) [ZILPATEROL HYDROCHLORIDE] 4.89

---

target: Mu-type opioid receptor (Homo sapiens, UniProt P35372); assay: Antagonist activity at human recombinant mu opioid receptor expressed in AequoScreen cells assessed as aequorin-derived receptor-mediated changes in intracellular calcium levels; type: functional, cell-based
Sequence (P35372 whole entry): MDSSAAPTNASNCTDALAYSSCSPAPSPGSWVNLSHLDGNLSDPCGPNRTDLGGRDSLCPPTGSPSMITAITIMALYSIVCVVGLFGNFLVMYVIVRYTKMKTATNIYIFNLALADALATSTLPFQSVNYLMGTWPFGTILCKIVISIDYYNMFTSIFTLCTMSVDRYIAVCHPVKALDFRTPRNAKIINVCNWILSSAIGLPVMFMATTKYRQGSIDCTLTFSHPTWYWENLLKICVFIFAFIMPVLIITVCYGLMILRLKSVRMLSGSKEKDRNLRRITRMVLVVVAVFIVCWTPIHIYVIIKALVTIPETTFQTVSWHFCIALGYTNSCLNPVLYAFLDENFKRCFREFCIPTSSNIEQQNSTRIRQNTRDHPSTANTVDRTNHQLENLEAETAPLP
Where a name gives a salt, the structure may show the parent alone.
measured-parameter: IC50

GET /values?readout=IC50&item= CC(C)N[C@@H]1CCn2c(=O)[nH]c3cccc(c32)[C@H]1O (racemic) [ZILPATEROL HYDROCHLORIDE] 300 µM

GET /values?readout=IC50&item= CC(C)N[C@H]1CCn2c(=O)[nH]c3cccc(c32)[C@@H]1O 140 µM

GET /values?readout=IC50&item= CC(C)N[C@@H]1CCn2c(=O)[nH]c3cccc(c32)[C@H]1O [ZILPATEROL HYDROCHLORIDE] > 1000 µM
